Values were extracted from paper PMC7826789.

System: ABL1(F317L)-phosphorylated;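 further: KINOMEscan scanMAX binding as percent activity remaining versus control; lower means stronger binding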
Conditions: Compound Concentration (nM):1000
Measurement Label: Percent Control (%)
Note: unit % is implicit; provide only the numeric part.

CC1=C(C(=O)Nc2ccc3[nH]ncc3c2)C(c2ccc3ccccc3c2)CC(=O)N1 (stereo not drawn) [GSK270822A] yielded Percent Control of 68

Looking up O=C1Nc2ccc(C(=O)c3ccco3)cc2C1=Cc1cc(Cl)c(O)c(Cl)c1 [GW406108X] , I found its Percent Control recorded as 71

Just so you know, measured Percent Control for Cl.O=S1CCN(Cc2ccc(-c3ccc4ncnc(Nc5ccc(OCc6ccccc6)c(F)c5)c4c3)o2)CC1 [GW576924A] came out at 70

// field: Percent Control; key: CC1=C(C(=O)Nc2ccc3[nH]ncc3c2)C(c2ccc(Cl)c(Cl)c2)CC(=O)N1 (stereo not drawn) [GSK299115A] ; value = 74

get_value(item= COc1ccc2cc(-c3c(-c4ccncc4)nc(-c4ccc(S(C)(=O)=O)cc4C)n3C)ccc2c1 [SB-633825] , readout=Percent Control) returns 74

Notebook: COc1ccc2c(-c3ccnc(Nc4cccc(OC(F)(F)F)c4)n3)cnn2n1 [GW810372X] , Percent Control read as 100

Note to self: Percent Control recorded for COC(=O)Nc1nc2ccc(Oc3ccc(NC(=O)Nc4cc(C(F)(F)F)ccc4F)cc3)cc2s1.Cl [GW693917A] was 14

Consider C/C(Nc1ccc(S(N)(=O)=O)cc1)=C1/C(=O)Nc2ccccc21 [GW335962X] . Its measured Percent Control is 89

The reported value for COc1ccc(COc2ccc(Cc3cnc(N)nc3N)cc2OC)cc1 [GW632580X] in terms of Percent Control is 93

Lab note: measured Percent Control of COc1cc2ncn(-c3cc(O[C@H](C)c4ccccc4Cl)c(C(N)=O)s3)c2cc1OC [GSK237701A] was 71

Kindly note the recorded Percent Control for NS(=O)(=O)c1ccc(N/N=C2\C(=O)Nc3ccc(C(=O)NCc4ccncc4)cc32)cc1 [GW300657X] , which is 54

Just so you know, measured Percent Control for Cl.O=C(Nc1ccc(Oc2ccc3[nH]c(NC(=O)c4ccco4)nc3c2)cc1)Nc1cc(C(F)(F)F)ccc1F [GW683134A] came out at 54

Documented Percent Control of CC(C)COC(=O)c1ccc2c(c1)/C(=C/Nc1ccc(S(N)(=O)=O)cc1)C(=O)N2 [GW416981X] : 100

get_value(item= CN(C)c1cc2c(Nc3ccc4c(cnn4Cc4ccccc4)c3)ncnc2cn1 [GW282974X] , readout=Percent Control) returns 50

Percent Control in this record for O=C(Nc1n[nH]c2nc(-c3ccc(O)cc3)c(Br)cc12)C1CC1 [SB-725317] : 100
